From: patent US6958156B2

Assay: Hydrolysis of genistein-7-phosphate to free genistein in human serum
Type: in vitro ADME
Conditions: 37° C.
Method: In each of these experiments, free genistein was extracted with a 1:1 mixture of ethyl acetate and hexane, then analyzed by HPLC under the conditions described in example 5. a) In human serum (Sierra Biologicals) at 37° C., the half-life for hydrolysis to free genistein was about 5 hours.
MEASUREMENT_NAME: half-life

Prompt: Which half-life is listed for O=c1c(-c2ccc(O)cc2)coc2cc(OP(=O)(O)O)cc(O)c12 [genistein-7-phosphate, Genistein-7-Phosphate] ?
Completion: ~5 h

====

Experiment: Hydrolysis of genistein-7-phosphate to free genistein in rat blood
Assay type: in vitro ADME
Details: 37° C.
MEASUREMENT_NAME: half-life

Prompt: Which half-life is listed for O=c1c(-c2ccc(O)cc2)coc2cc(OP(=O)(O)O)cc(O)c12 [genistein-7-phosphate, Genistein-7-Phosphate] ?
Completion: ~30 min
